Quantity Kind: melting point (°C)

>>> recorded_result("Cc1cccc2c1C(=O)C(=S)N2")
265
>>> recorded_result("O=C(O)c1cc(Oc2c(Cl)cc(Cl)cc2Cl)ccc1[N+](=O)[O-]")
192

---

Quantity Kind: melting point

>>> recorded_result("CCc1ccc(Nc2c(F)c(F)cc(F)c2F)c(CC(=O)N(C)C)c1")
"105 to 106 °C"
>>> recorded_result("NS(=O)(=O)c1cc(C(=O)O)cc(SCc2ccco2)c1Oc1ccccc1")
"214 to 216 °C"
>>> recorded_result("COc1cc(OC)nc(N2CCN(Cc3ccc(C(C)(C)NC(C)=O)cc3)CC2)n1")
"199 to 202 °C"
>>> recorded_result("NC(=O)N1CC(Oc2cccc(Br)c2)C1")
"188 to 189 °C"
>>> recorded_result("CCN1Cc2cccc3scc(c23)S1(=O)=O")
"156 °C"
>>> recorded_result("C[C@@H](n1ncn(-c2ccc(-n3ncn(-c4ccc(OCC(F)(F)C(F)F)cc4)c3=O)cc2)c1=O)[C@@]1(c2ccc(F)cc2F)CO1")
"181 to 183 °C"
>>> recorded_result("CCCCC(Cc1ccc(OCCNC(=O)c2ccc(-c3cccc(C(=O)O)c3)cc2)cc1)C(=O)O (configuration not stated)")
"142 to 143 °C"
>>> recorded_result("CCOP(=O)(Cc1cc(C)cc(C)n1)OCC")
"109 to 112 °C"
>>> recorded_result("O=[N+]([O-])c1ccc(Cl)c(O)c1")
"115 to 117 °C"
>>> recorded_result("O=C(O)c1cc(=O)n(Cc2ccccc2S(=O)(=O)O)[nH]1")
"223 to 226 °C"
>>> recorded_result("COC(=O)C1C=CCn2c(=O)[nH]c(=O)n21 (configuration not stated)")
"210 to 213 °C"
>>> recorded_result("NC(=O)CCC/C=C\\[C@@H]1C[C@@H](NS(=O)(=O)c2ccc(Cl)cc2)CN1S(=O)(=O)c1ccc(Cl)cc1")
"142 to 143 °C"

---

# melting point listing for each entry below
Quantity Kind: melting point

>>> recorded_result("COc1cc(Nc2c(C#N)cnc3cc(-c4ccc(C(=O)O)cc4)sc23)c(Cl)cc1Cl")
"> 300 °C"
>>> recorded_result("O=c1cc(CCO)c2ccccc2[nH]1")
"213 to 215 °C"
>>> recorded_result("CCCCOc1cc(CCC(=O)O)ccc1CCCc1ccc(OCCCC)c(OC)c1")
"64 °C"
>>> recorded_result("COc1cc(C#Cc2ccccc2)c(OC)cc1C#Cc1ccccc1")
"172 to 174 °C"
>>> recorded_result("Cc1cc(-c2cccnc2)n2ncc(C(=O)c3ccccc3)c2n1")
"196 to 198 °C"
>>> recorded_result("O=C(CCSCCC(=O)Nc1ccc(Nc2ccccc2)cc1)Nc1ccc(Nc2ccccc2)cc1")
"199 to 203 °C"
>>> recorded_result("CCc1ncnc(Cl)c1I")
"56 to 57 °C"
>>> recorded_result("O=C(NCCO)c1cccc(-c2nccc3cc(Cc4cccc(C(F)(F)F)c4)oc23)c1")
"168 to 169 °C"
>>> recorded_result("O=C(Nc1ccccc1)C1CSc2sccc2C1=O (configuration not stated)")
"155 to 158 °C"
>>> recorded_result("Cc1nc(N2C(=O)N(Cc3ccc(F)cc3)C[C@@H]2C)sc1C(N)=O")
"197 to 198 °C"
>>> recorded_result("Cc1nnc(-c2ccccc2)c2nc(OCc3ncnn3C)c(C3CCC3)n12")
"160 °C"
>>> recorded_result("CC(=O)c1ccc(Nc2c3ccccc3nc3occ(Cl)c23)cc1")
"174 to 176 °C"
>>> recorded_result("CCc1c(S(=O)(=O)c2ccc(=O)[nH]n2)oc2ccc(Cl)cc12")
"209 to 210 °C"
>>> recorded_result("CC(C)NC1=NS(=O)(=O)c2cc(Br)ccc2N1")
"> 220 °C"
>>> recorded_result("CC(=NCCO)c1ccccc1NC(=O)C(Cl)(Cl)Cl")
"182 °C"
>>> recorded_result("Cc1cc(-c2nc3cccnn3c2-c2ccnc(NC(=O)c3ccccn3)c2)ccc1F")
"234 to 235 °C"
>>> recorded_result("Nc1ccc(OC2(c3ccccc3)CCN(Cc3ccccc3)CC2)cc1")
"124 to 126 °C"

---

# melting point listing for each entry below
Quantity Kind: melting point

>>> recorded_result("CN1C(=O)Nc2ccc(Cl)cc2C1(C#CC1(C)CC1)C(F)(F)F (centres undefined)")
"206 to 208 °C"
>>> recorded_result("Cc1cnc2nc(C(F)(F)F)[nH]c(=O)c2c1")
"270 to 272 °C"
>>> recorded_result("CCOC(=O)c1c(Cl)nc2ccc(OC)cc2c1CCl")
"215 to 219 °C"
>>> recorded_result("Cc1cc(C#N)cc(C)c1OCCCc1cncs1")
"71 to 73 °C"

---

# melting point listing for each entry below
Quantity Kind: melting point

>>> recorded_result("Nc1c(-c2cc(Cl)ccc2O)c2c(C(F)(F)F)c(Cl)ccc2[nH]c1=O")
"139 to 140 °C"
>>> recorded_result("CCCN(CCC)C(=O)n1cnc(S(=O)CCC)n1 (stereo not drawn)")
"50 to 52 °C"
>>> recorded_result("N#CNC(=N)CCCSc1nccc(NC(N)=NCC(F)(F)F)n1")
"224 °C"
>>> recorded_result("CC(Oc1cc(Oc2ccc(C(F)(F)F)cc2Cl)ccc1[N+](=O)[O-])C(=O)NCc1ccco1 (stereo not drawn)")
"128 to 130 °C"
>>> recorded_result("CCOC(=O)c1c(CS(=O)c2nc3ccccc3[nH]2)nc2cc(OC)c(OC)cc2c1-c1ccc(OC)c(OC)c1 (stereo not drawn)")
"160 to 161 °C"
>>> recorded_result("CN=C(SC)N(C)Cc1cccnc1Cl")
"106 to 113 °C"
>>> recorded_result("C=CCOc1cc(CNc2nc(C)nc(C)c2Cl)ccc1OCc1ccccc1")
"94 to 96 °C"
>>> recorded_result("CC(C)NCC(O)COc1ccc(OCCn2cccn2)cc1 (stereo not drawn)")
"37 to 39 °C"
>>> recorded_result("CC(C)Sc1sc(C(=O)N2CCCC2)c2c1-c1oncc1C(C)(C)C2")
"88 to 91 °C"
>>> recorded_result("COc1cc(OC)c(-c2cccs2)cc1/C=C/C(=O)c1ccc(S(=O)(=O)Nc2ccon2)cc1")
"198 to 199 °C"
>>> recorded_result("CN(C)Cc1cccc(OCCCNc2ncc(Cc3cccnc3)c(=O)[nH]2)c1")
"103 to 104 °C"
>>> recorded_result("Cc1ccnc(C(=O)c2[nH]c3cc(Cl)ccc3c2NC(=O)C(C)(C)O)c1")
"217 to 219 °C"
>>> recorded_result("O=C(O)CCc1cnoc1-c1ccc(Cl)s1")
"138 to 139 °C"
>>> recorded_result("CCCCCNC(=O)c1ccc(N2CCC(N3C(=O)C(F)(F)c4ccccc43)CC2)nn1")
"100 to 102 °C"
>>> recorded_result("Oc1ccc2c(-c3ccc4c(Br)c(O)ccc4c3)noc2c1")
"275 to 277 °C"
>>> recorded_result("Cc1[nH]c(C(C)(C)C)nc1CO")
"196 °C"
>>> recorded_result("CC(C)OC1C=CC(=O)N1 (stereo not drawn)")
"79 to 81 °C"
>>> recorded_result("COc1cccc(C2C(=O)NC(=O)C2c2cn3c4c(cccc24)CCC3)c1 (stereo not drawn)")
"87 to 91 °C"
>>> recorded_result("COC(=O)c1cc(Cl)c(N)cc1O")
"138 to 139 °C"
>>> recorded_result("ON=C1CCN(C2c3ccccc3COc3ccc(Br)cc32)CC1 (stereo not drawn)")
"223 to 225 °C"
>>> recorded_result("COC(=O)c1cn2c(n1)COc1ccc(N)cc1-2")
"213 to 214 °C"
>>> recorded_result("CCc1nccn1CC(=O)c1ccc(-c2ccc(N3C[C@H](Cn4ccnn4)OC3=O)cc2F)cn1")
"77 to 79 °C"
>>> recorded_result("CNc1nc(-c2ccccc2)c(-c2nc3ccccc3c(=O)n2-c2cccc(C)c2)s1")
"186 to 187 °C"
>>> recorded_result("CCOC(=O)C(=O)c1ccc(OCCOc2ccc3ccccc3c2)s1")
"98 to 100 °C"
>>> recorded_result("O=C1N(Cc2cccc(Cl)n2)c2ccccc2C12COc1cc3c(cc12)OCCO3 (stereo not drawn)")
"181 to 182 °C"
>>> recorded_result("O=C1Nc2ccc(-c3cccnc3)cc2C12CCCCC2")
"232 to 234 °C"
>>> recorded_result("CC(=O)Nc1cccc(/C=C/C(=O)O)c1C")
"265 to 267 °C"
>>> recorded_result("CC1(C)OC(C=Cc2ccc(F)cc2)=CC1=O")
"55 to 57 °C"
>>> recorded_result("CCc1cccc2c3c([nH]c12)C(CC)(CC)OCC3")
"133 to 134 °C"
>>> recorded_result("COc1ccc([C@@H]2O[C@H]2C(=O)Nc2ccccc2)cc1")
"162 to 163 °C"
>>> recorded_result("CC(C)(C)[Si](C)(C)Oc1ccc2c(c1)oc(=O)c1c3ccc(O[Si](C)(C)C(C)(C)C)cc3sc21")
"142 to 144 °C"
>>> recorded_result("COc1cc(C2c3cc4c(cc3C(NC(=O)CNCCN(C)C)C3COC(=O)C23)OCO4)cc(OC)c1O (stereo not drawn)")
"230 °C"
>>> recorded_result("CC(C)c1cc(Oc2ccc(Cl)cc2)nc(C(C)C)c1N=C=NC(C)(C)C")
"46 to 55 °C"
